Reference for the values: patent US10787451B2

PROCEDURE_SUMMARY: Stability test of crystal forms spread flat in the air under lighting, heating and high humidity (HPLC purity, XRPD)
Format: physicochemical
APPLIED_CONDITIONS: lighting (4500 Lux), spread flat in the air, Day 5
MEASUREMENT_NAME: purity as detected by HPLC, Lighting (%)
Write it as a number; the unit % goes unstated.

Some solved entries appear below for comparison.
- CONC(=O)Nc1ccc(-n2nc3c(c2CN(C)C)c(=O)n(-c2ccc(OC)nn2)c(=O)n3Cc2c(F)cccc2F)cc1 [Crystal form C]: 98.30
- CONC(=O)Nc1ccc(-n2nc3c(c2CN(C)C)c(=O)n(-c2ccc(OC)nn2)c(=O)n3Cc2c(F)cccc2F)cc1 [Crystal form D]: 99.43
- CONC(=O)Nc1ccc(-n2nc3c(c2CN(C)C)c(=O)n(-c2ccc(OC)nn2)c(=O)n3Cc2c(F)cccc2F)cc1 [Crystal form B]: 99.39
- CONC(=O)Nc1ccc(-n2nc3c(c2CN(C)C)c(=O)n(-c2ccc(OC)nn2)c(=O)n3Cc2c(F)cccc2F)cc1 [Crystal form I]: 99.26

Could you now consider this next molecule?
Q: Give the measured purity as detected by HPLC, Lighting of CONC(=O)Nc1ccc(-n2nc3c(c2CN(C)C)c(=O)n(-c2ccc(OC)nn2)c(=O)n3Cc2c(F)cccc2F)cc1 [Crystal form A] .
A: 97.27
